Molecular target: PSG (PSD-95)
Test: FP displacement (competition) of FITC-15 AA CRIPT by library peptide, IC50 and Ki
Conditions: read-out: IC50 (µM), PSG; FP displacement of FITC-15 AA CRIPT probe by PSD library peptide; protein PSG (wild type)
quantity-name: IC50 (µM)
Value expressed in µM; do not type the unit.

Recorded IC50, per entry:
CC(=O)N[C@@H](Cc1ccc(O)cc1)C(=O)N[C@@H](CC(=O)O)C(=O)N[C@@H](CO)C(=O)N[C@H](C(=O)N[C@@H](CCC(=O)O)C(=O)N[C@@H](CCC(N)=O)C(=O)N[C@@H](CO)C(=O)N[C@@H](CC(=O)O)C(=O)N[C@H](C(=O)N[C@@H](CCCNC(=N)N)C(=O)N[C@@H](Cc1ccccc1)C(=O)N[C@@H](CO)C(=O)N[C@@H](CO)C(=O)N[C@@H](C)C(=O)N[C@H](C(=O)O)C(C)C)C(C)C)[C@@H](C)O: 865
CC(=O)N[C@@H](Cc1ccc(O)cc1)C(=O)N[C@@H](CO)C(=O)N[C@@H](CO)C(=O)N[C@H](C(=O)N[C@@H](CO)C(=O)N1CCC[C@H]1C(=O)N[C@@H](CCC(N)=O)C(=O)N[C@@H](CO)C(=O)N[C@H](C(=O)N[C@@H](CC(=O)O)C(=O)N[C@@H](CCCCN)C(=O)N[C@@H](CO)C(=O)N[C@@H](CO)C(=O)N[C@H](C(=O)N[C@H](C(=O)O)C(C)C)[C@@H](C)O)[C@@H](C)O)[C@@H](C)O: 1450
CC(=O)N[C@@H](Cc1ccc(O)cc1)C(=O)N[C@@H](CCCCN)C(=O)N[C@@H](CCCCN)C(=O)N[C@H](C(=O)N[C@@H](CC(C)C)C(=O)N[C@@H](CC(=O)O)C(=O)N[C@H](C(=O)N[C@@H](CCCCN)C(=O)N[C@@H](CC(N)=O)C(=O)N[C@@H](Cc1ccc(O)cc1)C(=O)N[C@@H](CCCCN)C(=O)N[C@@H](CCC(N)=O)C(=O)N[C@H](C(=O)N[C@@H](CO)C(=O)N[C@H](C(=O)O)C(C)C)[C@@H](C)O)[C@@H](C)O)C(C)C: 6
CC(=O)N[C@@H](Cc1ccc(O)cc1)C(=O)N[C@@H](CCCNC(=N)N)C(=O)N[C@@H](CCC(N)=O)C(=O)N1CCC[C@H]1C(=O)N[C@@H](CC(C)C)C(=O)N1CCC[C@H]1C(=O)N[C@@H](CC(=O)O)C(=O)N[C@@H](CO)C(=O)N[C@@H](CC(N)=O)C(=O)N1CCC[C@H]1C(=O)N[C@@H](CCC(=O)O)C(=O)N[C@@H](CCC(=O)O)C(=O)N[C@@H](CO)C(=O)N[C@@H](CO)C(=O)N[C@H](C(=O)O)C(C)C: 631

## Task Can you look up the measured IC50 of `CC[C@H](C)[C@H](NC(=O)[C@H](CCC(=O)O)NC(=O)[C@@H](NC(=O)[C@H](CO)NC(=O)[C@H](CCC(=O)O)NC(=O)[C@@H](NC(=O)[C@H](CCCNC(=N)N)NC(=O)[C@H](CCC(=O)O)NC(=O)[C@H](CC(C)C)NC(=O)[C@H](CCCNC(=N)N)NC(=O)[C@H](CO)NC(=O)[C@@H]1CCCN1C(=O)[C@@H](NC(=O)[C@H](Cc1c[nH]c2ccccc12)NC(=O)[C@H](Cc1ccc(O)cc1)NC(C)=O)[C@@H](C)O)[C@@H](C)CC)[C@@H](C)O)C(=O)O` for me?
## Result 2120
